test system: HT29; assay: WST-1 cytotoxicity, 72 h; format: cell-based; settings: IC50 MCF10A/IC50 HT29
QUANTITY_MEASURED: Selective cytotoxicity index (SCI)

| COMPOUND_SMILES | RECORDED_MEASUREMENT |
| --- | --- |
| Cc1cc2cccnc2c2ncccc12.N[C@H]1CCCC[C@@H]1N.O=[N+]([O-])[O-].O=[N+]([O-])[O-].[OH][Pt+2][OH] | 3.36 |
| N[C@H]1CCCC[C@@H]1N.O=[N+]([O-])[O-].O=[N+]([O-])[O-].[Pt+2].c1cnc2c(c1)ccc1cccnc12 | 4.59 |
| Cc1cc2cccnc2c2ncccc12.N[C@H]1CCCC[C@@H]1N.O=[N+]([O-])[O-].O=[N+]([O-])[O-].[Pt+2] | 2.15 |
| N[C@H]1CCCC[C@@H]1N.O=[N+]([O-])[O-].O=[N+]([O-])[O-].[OH-].[OH-].[Pt+4].c1cnc2c(c1)ccc1cccnc12 | 4.57 |
| Cc1c(C)c2cccnc2c2ncccc12.N[C@H]1CCCC[C@@H]1N.O=[N+]([O-])[O-].O=[N+]([O-])[O-].[Pt+2] | 2.28 |
| Cc1c(C)c2cccnc2c2ncccc12.N[C@H]1CCCC[C@@H]1N.O=[N+]([O-])[O-].O=[N+]([O-])[O-].[OH][Pt+2][OH] | 3.93 |
